# Test system: Malme-3M
# TEST_PROTOCOL: NCI tumour cell line growth inhibition, 48 h
Active and inactive are the calls of the source. Cut-off read from the data, not from the text of the source: active = GI50 up to about 1.1 µM and inactive = higher.

{"SMILES_REPR": "COc1cc2c(cc1OC)C(=O)/C(=C/c1cc(Cl)cc(Cl)c1)C2", "EXPERIMENTAL_SYSTEM": "Malme-3M", "GI50": "8.51 µM (inactive)"}
{"SMILES_REPR": "CCN(C(C)=N)c1ccccc1", "EXPERIMENTAL_SYSTEM": "Malme-3M", "GI50": "> 100 µM (inactive)"}
{"SMILES_REPR": "NC(=O)c1ccc(NCC2=CC(=O)C=CC2=O)cc1", "EXPERIMENTAL_SYSTEM": "Malme-3M", "GI50": "19.5 µM (inactive)"}
